Where do these numbers come from? They come from PubChem BioAssay AID2060341.

Tested on: 327498-153-R-J2-PDC multicell spheroid viability;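 also: spheroids exposed to agents for 7 days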
test.details: Anticancer human tumor 327498-153-R-J2-PDC patient-derived uterine carcinosarcoma cell line growth inhibition [IpAb]
run.parameters: curve of first compound; second compound 0.316 µM
Documented IC50 across a set of compounds
experimental.endpoint: IC50

compound	experimental.endpoint	val
CCCS(=O)(=O)Nc1ccc(F)c(C(=O)c2c[nH]c3ncc(-c4ccc(Cl)cc4)cc23)c1F + CCN1CCN(Cc2ccc(Nc3ncc(F)c(-c4cc(F)c5nc(C)n(C(C)C)c5c4)n3)nc2)CC1	IC50	> 10000 nM
Cn1ncc(Cl)c1-c1cc(C(=O)NC(CN)Cc2cccc(F)c2)sc1Cl (stereo not given) + CCN1CCN(Cc2ccc(Nc3ncc(F)c(-c4cc(F)c5nc(C)n(C(C)C)c5c4)n3)nc2)CC1	IC50	< 31.6 nM
CC(=O)c1c(C)c2cnc(Nc3ccc(N4CCNCC4)cn3)nc2n(C2CCCC2)c1=O + CCN1CCN(Cc2ccc(Nc3ncc(F)c(-c4cc(F)c5nc(C)n(C(C)C)c5c4)n3)nc2)CC1	IC50	> 300 nM
C=CC(=O)N1CCN(c2nc(=O)n(-c3c(C)ccnc3C(C)C)c3nc(-c4c(O)cccc4F)c(F)cc23)C(C)C1 (stereo not given) + CC(C)NCC(C(=O)N1CCN(c2ncnc3c2C(C)CC3O)CC1)c1ccc(Cl)cc1	IC50	< 31.6 nM
Cn1nccc1Nc1nccc(-c2ccn(C(CO)c3ccc(Cl)c(F)c3)c(=O)c2)n1 (stereo not given) + CCN1CCN(Cc2ccc(Nc3ncc(F)c(-c4cc(F)c5nc(C)n(C(C)C)c5c4)n3)nc2)CC1	IC50	< 31.6 nM
